Cited source for all entries: the supplement of paper PMC9112550

# System: Escherichia coli TOP10
# protocol.description: shrunken log2 fold change of peptide-encoding DNA abundance (4.5 h post-induction vs induction); higher = less antimicrobial activity (less host growth inhibition)
# measurement.conditions: time post-induction: 4.5 h; library: site-saturation at positions 5, 18, 19, 20
Categories are assigned from the measured shrunken log2 fold change using these intervals: low = under -0.09, medium = from -0.09 up to 0.07, high = 0.07 and over

Use these answered entries as a reference point.
-- ask Assign a bin to RRIRCRPPRLPRPRPRPMWRPRP
-- reply high

-- ask Try this sequence too: RRIRRRPPRLPRPRPRPQFWPRP
-- reply high

-- ask How about this sequence: RRIRWRPPRLPRPRPRPSIPPRP
-- reply high

-- ask Next sequence: RRIRIRPPRLPRPRPRPILMPRP
-- reply low

-- ask Also check RRIRKRPPRLPRPRPRPVDGPRP
-- reply high

-- ask Same thing, different sequence: RRIRTRPPRLPRPRPRPHDCPRP
-- reply medium

---
-- ask Exercise: read the entry RRIRMRPPRLPRPRPRPYDRPRP and state which class it falls under.
-- reply medium

-- ask Now the sequence RRIRFRPPRLPRPRPRPPGNPRP
-- reply medium

-- ask Repeat with RRIRQRPPRLPRPRPRPHSPPRP
-- reply medium

###

Collected shrunken log2 fold change values appear next to each entry.
# Test system: Escherichia coli TOP10
# protocol.description: shrunken log2 fold change of peptide-encoding DNA abundance (4.5 h post-induction vs induction); higher = less antimicrobial activity (less host growth inhibition)
# measurement.conditions: time post-induction: 4.5 h; library: site-saturation at positions 5, 18, 19, 20
Output spec: single numeric token, no unit.

-- ask // lookup shrunken log2 fold change for RRIRIRPPRLPRPRPRPPYPPRP
-- reply -0.188

Read the next record carefully.
-- ask Item RRIRNRPPRLPRPRPRPNYTPRP has what recorded shrunken log2 fold change?
-- reply -0.359

###

# System: Escherichia coli TOP10;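 also: peptides expressed intracellularly from a pBAD plasmid library in pooled LB shake-flask culture, induced with 0.3% L-arabinose, DNA abundance read by NGS, three biological replicates, DESeq2 with apeglm shrinkage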
# protocol.description: shrunken log2 fold change of peptide-encoding DNA abundance (4.5 h post-induction vs induction); higher = less antimicrobial activity (less host growth inhibition)
# measurement.conditions: time post-induction: 4.5 h; library: site-saturation at positions 5, 18, 19, 20
Measured shrunken log2 fold change of individual entries

The examples below pair each entry with its known result.
-- ask Item RRIRHRPPRLPRPRPRPWWEPRP has what recorded shrunken log2 fold change?
-- reply -0.015

-- ask // same read-out, input: RRIRIRPPRLPRPRPRPPKKPRP
-- reply -0.114

-- ask How about RRIRERPPRLPRPRPRPRTKPRP ?
-- reply 0.175

-- ask Please answer likewise for RRIRGRPPRLPRPRPRPPQCPRP
-- reply 0.713

-- ask Then RRIRSRPPRLPRPRPRPRLTPRP ?
-- reply 0.0483

-- ask Field entry: RRIRKRPPRLPRPRPRPWWTPRP
-- reply 0.0991

-- ask Do the same for RRIRKRPPRLPRPRPRPHFQPRP please
-- reply 0.0821

-- ask Field entry: RRIRHRPPRLPRPRPRPKMHPRP
-- reply -0.0718

-- ask Would you kindly repeat that for RRIRMRPPRLPRPRPRPIKKPRP ?
-- reply 0.0441

-- ask Another: RRIRPRPPRLPRPRPRPVRMPRP
-- reply 0.213

Further cases:
-- ask Would you kindly share the measured shrunken log2 fold change for RRIRHRPPRLPRPRPRPAINPRP ?
-- reply -0.221

-- ask Proceed to RRIRMRPPRLPRPRPRPFVQPRP
-- reply -0.216
